Could you please report measured Kd for the items listed next?
Molecular target: T1, human SEMG2 full-length protein (human, UniProt Q02383 24-582, limits assumed)
T1 construct: also called SEMG2 protein; semenogelin 2
T1 sequence: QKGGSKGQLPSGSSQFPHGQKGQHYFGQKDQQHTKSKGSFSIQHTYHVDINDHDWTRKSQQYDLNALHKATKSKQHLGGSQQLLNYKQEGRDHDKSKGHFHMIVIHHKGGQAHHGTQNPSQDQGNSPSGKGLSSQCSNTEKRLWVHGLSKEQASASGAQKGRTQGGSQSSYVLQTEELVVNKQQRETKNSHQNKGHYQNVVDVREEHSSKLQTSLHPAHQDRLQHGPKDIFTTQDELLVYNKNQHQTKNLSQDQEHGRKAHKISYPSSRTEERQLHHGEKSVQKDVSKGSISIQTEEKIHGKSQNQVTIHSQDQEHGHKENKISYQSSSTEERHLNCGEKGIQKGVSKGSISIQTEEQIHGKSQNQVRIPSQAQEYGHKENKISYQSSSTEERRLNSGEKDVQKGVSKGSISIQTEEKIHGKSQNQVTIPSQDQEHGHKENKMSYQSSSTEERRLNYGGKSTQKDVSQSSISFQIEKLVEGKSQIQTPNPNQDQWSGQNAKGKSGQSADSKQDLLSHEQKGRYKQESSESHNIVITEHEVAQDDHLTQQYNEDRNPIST
Experiment: biolayer interferometry (ForteBio Blitz or Gator)

Fill in the blank: the reported Kd of MM07 (antibody, V domains shown, The VH and VL begin with what look like leader peptides (MDWLW..., MVSSAQ...)) VH: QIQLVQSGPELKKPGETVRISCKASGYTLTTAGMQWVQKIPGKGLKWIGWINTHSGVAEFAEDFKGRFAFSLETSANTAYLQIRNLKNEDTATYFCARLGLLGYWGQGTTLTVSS VL: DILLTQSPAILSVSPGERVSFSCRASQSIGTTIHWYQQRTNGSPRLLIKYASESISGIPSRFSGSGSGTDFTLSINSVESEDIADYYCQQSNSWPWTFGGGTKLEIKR is ____.
1.82 nM

And for MM02 (antibody, IgG2b, V domains shown) VH: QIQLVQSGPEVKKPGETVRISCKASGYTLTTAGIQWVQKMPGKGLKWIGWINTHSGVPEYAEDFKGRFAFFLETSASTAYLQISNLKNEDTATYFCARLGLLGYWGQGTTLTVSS VL: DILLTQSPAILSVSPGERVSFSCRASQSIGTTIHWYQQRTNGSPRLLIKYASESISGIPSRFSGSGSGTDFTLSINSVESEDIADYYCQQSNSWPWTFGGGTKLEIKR ?
1.33 nM

And for H88-96 (antibody, V domains shown, Fully human full-length antibody built from a phage Fab) VH: QVQLLESGGGLVQPGGSLRLSCSASGFTFSSYAMHWVRQAPGKGLEYVSAISSNGGSTYYADSVKGRFTISRDNSKNTLYLQMSSLRAEDTAVYYCVIEGGSTTGTTSGAFDIWGQGTMVTVSS VL: DIQMIQSPPSVSASVGDTVTIACRANQGIDSWLAWYQQKPGRAPKLLIYSASRLQSGVPSRFSGGGSGTDFALTISNLQPEDFATYYCQQALSLPITFGQGTRLEIK ?
14 nM

And for MM05 (antibody, IgG1, V domains shown) VH: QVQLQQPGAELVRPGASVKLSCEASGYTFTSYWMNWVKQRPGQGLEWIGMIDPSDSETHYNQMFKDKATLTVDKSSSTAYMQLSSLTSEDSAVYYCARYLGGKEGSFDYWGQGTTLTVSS VL: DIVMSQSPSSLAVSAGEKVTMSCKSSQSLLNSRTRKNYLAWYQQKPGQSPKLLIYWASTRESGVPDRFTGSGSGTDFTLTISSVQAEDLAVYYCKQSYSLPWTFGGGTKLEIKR ?
5.28 nM
